# Test system: SARS-CoV-2
# assay info: Antiviral activity against SARS-CoV-2 infected in human HPAEpiC cells assessed as reduction in viral growth
# Type: functional, organism-based
# experimental conditions: Severe acute respiratory syndrome coronavirus 2, HPAEpiC
observable: pEC50
Field pEC50 (float): negative decimal logarithm of the concentration in molar.

Reported SARS-CoV-2 pEC50 for item C=C1C(=O)[C@@]23C(=O)[C@@H](O)[C@@H]4C(C)(C)C[C@@H]5C(=O)OCC54[C@@H]2CC[C@@H]1[C@H]3OC(=O)C1Cc2ccccc2C1 (stereo partly specified) was 7.72

Value source: ChEMBL document CHEMBL6127038
